Recorded values, source the supplement of paper PMC11451515.

Test system: P12-Ichikawa
Assay: cell viability relative to DMSO control; higher = less cytotoxic
Settings: HPLM + 10% dialyzed FBS; 48 h; 0.0211 µM
readout type: cell viability (%)
Write the number in % without appending the unit.

Guide cases for cell viability, answers given:
CCc1cccc2c3c([nH]c12)C(CC)(CC(=O)O)OCC3 (centres undefined)    109
O=P1(N(CCCl)CCCl)NCCCO1 (centres undefined)    113
CCCc1nc2c(C)cc(-c3nc4ccccc4n3C)cc2n1Cc1ccc(-c2ccccc2C(=O)O)cc1    125

For `C[C@]12CC[C@@H]3c4ccc(O)cc4CC[C@H]3[C@@H]1CC[C@@H]2O` , what is its reported cell viability?
106

----------
Tested on: P12-Ichikawa
Assay: cell viability relative to DMSO control; higher = less cytotoxic
Conditions: RPMI 5 mM glucose + 10% dialyzed FBS; 48 h; 0.000781 µM
readout type: cell viability (%)
Write the number in % without appending the unit.

O=[S+]([O-])(CCSSCC[S+](=O)([O-])[O][Na])[O][Na]    108
COc1ccc(CC2c3cc(OC)c(OC)cc3CC[N+]2(C)CCC(=O)OCCCCCOC(=O)CC[N+]2(C)CCc3cc(OC)c(OC)cc3C2Cc2ccc(OC)c(OC)c2)cc1OC (stereo not given)    80.3
O=C(Nc1ccc([N+](=O)[O-])cc1Cl)c1cc(Cl)ccc1O    81.5
O=C(NCCCNc1nc(Nc2cccc(NC(=O)N3CCCC3)c2)ncc1I)c1cccs1    88.1
CN[C@H]1[C@H](O[C@@H]2[C@H](O[C@@H]3[C@@H](O)[C@@H](O)[C@@H](NC(=N)N)[C@@H](O)[C@H]3NC(=N)N)O[C@H](C)[C@@]2(O)C=O)O[C@@H](CO)[C@@H](O)[C@H]1O    118

For CC(=O)Oc1cc2c(s1)CCN(C(C(=O)C1CC1)c1ccccc1F)C2.Cl (stereo not given) , what is its reported cell viability?
95.9

Here is the next molecule: `C[C@@H](NCc1cc2ccccc2[nH]1)c1cccc2ccccc12`
84.1

Here is the next molecule: `C=CC(=O)Nc1cccc(Oc2nc(Nc3ccc(N4CCN(C)CC4)cc3OC)ncc2Cl)c1`
73

Here is the next molecule: `FC(F)(F)C1=CC=C2C(SCCCCCO\C3=C\O\C(CN4CCOCC4)=C/C3=O)=CC=NC2=C1`
112

Here is the next molecule: `CO[C@@H]1[C@@H](OC(N)=O)[C@@H](O)[C@H](OC2=CC=C3\C(=C(NC(=O)C4=CC=C([O-])C(=C4)CC=C(C)C)/C(=O)OC3=C2C)O)OC1(C)C`
109

----------
Tested on: P12-Ichikawa
Experiment: cell viability relative to DMSO control; higher = less cytotoxic
Conditions: RPMI 5 mM glucose + 10% dialyzed FBS; 48 h; 15.4 µM
readout type: cell viability (%)
Write the number in % without appending the unit.

O=C(O)CCNc1cc(N2CCc3ccccc3CC2)nc(-c2ccccn2)n1    102

For `CCN1\C=C(C(O)=O)/C(=O)C2=C1C=C(N3CCN(C)CC3)C(=C2)F` , what is its reported cell viability?
69.1

Here is the next compound: `CCCC1=N[N](C)C2=C1\N=C(/NC2=O)C3=CC(=CC=C3OCC)[S+]([O-])(=O)N4CCN(C)CC4`
79.2

Here is the next compound: `COc1ccc(C(=O)CC(=O)c2ccc(C(C)(C)C)cc2)cc1`
110

Here is the next compound: `CN1/C=C(\N=C(NC2=CC=C(C=C2)C(=O)N3CCOCC3)/C1=O)/C4=C(C)C(=CC=C4)NC(=O)C5=CC=C(C=C5)C(C)(C)C`
93.7

----------
Listing of entries alongside the reported cell viability.
System: SEM cells
Assay: cell viability relative to DMSO control; higher = less cytotoxic
Conditions: RPMI 5 mM glucose + 10% dialyzed FBS; 48 h; 0.19 µM
Write the number in % without appending the unit.

Guide cases for cell viability, answers given:
CN1/C=C(\N=C(NC2=CC=C(C=C2)C(=O)N3CCOCC3)/C1=O)/C4=C(C)C(=CC=C4)NC(=O)C5=CC=C(C=C5)C(C)(C)C    107
NC1CCC(Nc2nc(Nc3ccc(C(=O)N4CCCCC4)cc3)c3ncn(-c4cccc(F)c4)c3n2)CC1 (centres undefined)    113
CC(C)(C)Cn1c(N)nc2ccc(-c3[nH]c(C(C)(C)C)nc3-c3ccc(F)cc3)nc21    87.9

For `Cc1cc(-c2nnc3n2CCCCC3)c(C)n1-c1ccccc1` , what is its reported cell viability?
127

----------
Listing of entries alongside the reported AUC of viability dose-response curve.
System: NOMO1
Assay: AUC of viability dose-response curve (% viability x log10 dose units); higher = less sensitive
Conditions: HPLM + 10% dialyzed FBS; 48 h
Answer field: number only, no words.

O=C([O-])[C@H](CC(=O)N1C[C@H]2CCCC[C@H]2C1)Cc1ccccc1    465
Cc1cc(-c2nnc3n2CCCCC3)c(C)n1-c1ccccc1    464
O=C(/C=C/C=C/c1ccc2c(c1)OCO2)N1CCCCC1    429

Next item in the queue.
For CC(=O)Oc1cc2c(s1)CCN(C(C(=O)C1CC1)c1ccccc1F)C2.Cl (centres undefined) , what is its reported AUC of viability dose-response curve?
386

----------
Tested on: SEM cells
Test: cell viability relative to DMSO control; higher = less cytotoxic
Conditions: RPMI 5 mM glucose + 10% dialyzed FBS; 48 h; 46.1 µM
readout type: cell viability (%)
Write the number in % without appending the unit.

Guide cases for cell viability, answers given:
CN1CC/C(CC1)=C3\c4ccccc4CC(=O)c2sccc23    113
CCCCCCCCOc1ccccc1C(=O)Nc1ccc(C(=O)OCC[N+](C)(CC)CC)cc1    30.7
O=C(c1ccc(/C=C/c2n[nH]c3ccccc23)cc1)N1CCNCC1    13.3
CN1/C=C(\N=C(NC2=CC=C(C=C2)C(=O)N3CCOCC3)/C1=O)/C4=C(C)C(=CC=C4)NC(=O)C5=CC=C(C=C5)C(C)(C)C    68.6
NC1CCC(Nc2nc(Nc3ccc(C(=O)N4CCCCC4)cc3)c3ncn(-c4cccc(F)c4)c3n2)CC1 (stereo not given)    88.9
C[C@H](NC(=O)Cc1cc(F)cc(F)c1)C(=O)N[C@@H]1C(=O)N(C)c2ccccc2-c2ccccc21    2.01

For `COC1=CC(=CC=C1)C2=CC=C(NC(=O)/C3=C(/CCC3)C(O)=O)C(=C2)F` , what is its reported cell viability?
30.9

Here is the next compound: OCCNC1CCCc2c1[nH]c1ccc(-c3ccccc3)cc21 (stereo not given)
22.9

Here is the next compound: `CC(C)(C)Cn1c(N)nc2ccc(-c3[nH]c(C(C)(C)C)nc3-c3ccc(F)cc3)nc21`
98.2

Here is the next compound: `CN(C)CC[C@H](CSc1ccccc1)Nc1ccc([S+](=O)([O-])NC(=O)c2ccc(N3CCN(Cc4ccccc4-c4ccc(Cl)cc4)CC3)cc2)cc1[N+](=O)[O-]`
3.36

Here is the next compound: CC(C[N+](C)(C)C)OC(N)=O (stereo not given)
108

Here is the next compound: `CN1CCN(Cc2ccc(NC(=O)Nc3ccc(Oc4cc(NC(=O)C5CC5)ncn4)cc3)cc2C(F)(F)F)CC1`
0.407

Here is the next compound: O=C(O)CSCC(=O)NC1CCSC1=O (stereo not given)
94.9

Here is the next compound: `Cn1c(=O)c2[nH]cnc2n(C)c1=O`
104

Here is the next compound: `CCCOc1ccc2[nH]c(NC(=O)OC)nc2c1`
18.7

----------
Tested on: NOMO1
Assay: cell viability relative to DMSO control; higher = less cytotoxic
Conditions: RPMI 5 mM glucose + 10% FBS; 48 h; 46.1 µM
Listing of entries alongside the reported cell viability.
Write the number in % without appending the unit.

Guide cases for cell viability, answers given:
CC1(C)Cc2c(sc(NC(=S)NC(=O)c3ccccc3)c2C(=O)O)CO1    91.5
Cn1cc(-c2cnn3c(N)c(Br)c([C@@H]4CCCNC4)nc23)cn1    12.8
Cc1cc(-c2nnc3n2CCCCC3)c(C)n1-c1ccccc1    110
C[C@@H](NCc1cc2ccccc2[nH]1)c1cccc2ccccc12    91.8
COc1ccc(CC2c3cc(OC)c(OC)cc3CC[N+]2(C)CCC(=O)OCCCCCOC(=O)CC[N+]2(C)CCc3cc(OC)c(OC)cc3C2Cc2ccc(OC)c(OC)c2)cc1OC (centres undefined)    8.84
O=C(C[C@@H]1C/C=C\CCC(=O)O[C@H](c2ccccc2)CNC1=O)NCc1ccc(Cl)cc1    110

For O=C1CCC[C@@H]2[C@H]3CCC[N+]4([O-])CCC[C@@H](CN12)[C@@H]34 (some centres undefined) , what is its reported cell viability?
6.85

Here is the next molecule: CC(C[N+](C)(C)C)OC(N)=O (centres undefined)
97.5

Here is the next molecule: `O=[S+]([O-])(CCSSCC[S+](=O)([O-])[O][Na])[O][Na]`
142
